ASSAYED_SYSTEM: T1, human CRF2α receptor (human) (UniProt Q13324)
T1 sequence: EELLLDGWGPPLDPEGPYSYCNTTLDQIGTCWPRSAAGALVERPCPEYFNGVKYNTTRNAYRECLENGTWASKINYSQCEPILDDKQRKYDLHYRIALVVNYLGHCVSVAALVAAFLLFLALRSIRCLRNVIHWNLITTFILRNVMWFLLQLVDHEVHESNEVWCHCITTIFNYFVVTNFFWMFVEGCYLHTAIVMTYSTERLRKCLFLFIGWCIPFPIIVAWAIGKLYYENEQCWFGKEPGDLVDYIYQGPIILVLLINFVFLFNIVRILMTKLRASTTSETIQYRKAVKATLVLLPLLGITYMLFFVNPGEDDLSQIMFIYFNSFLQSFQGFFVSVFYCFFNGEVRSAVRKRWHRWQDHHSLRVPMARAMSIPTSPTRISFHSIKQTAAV
PROTOCOL_DESCRIPTION: cell-based or functional assay
Ends that are not written are not given here.
PROPERTY_NAME: EC50 of adenylate cyclase stimulation (cAMP) (nM)

[I] SEEPPISLDLTFHLLREVLEMARAEQLAQQAHSNRKLMEII (peptide, UniProt P06850 154-194, looked up) [rat/human CRF]
[II] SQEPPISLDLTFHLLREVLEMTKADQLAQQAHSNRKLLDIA (peptide, UniProt P01142 148-188, looked up, ends and bridges not checked) [ovine CRF]
Of I and II , which shows the smaller EC50 of adenylate cyclase stimulation (cAMP) value? Returns: label corresponding to the selected item. I
(I: 20 nM, II: 80 nM)
